Experiment: MRT in Sprague-Dawley rat at 20 mg/kg, iv measured upto 24 hrs by LC-MS/MS analysis
Type: ADME, organism-based
Settings: in vivo
VALUE_KIND: MRT (h)
The response must be a number in h with no trailing unit.

Form field: reported MRT of CNc1cc(F)cc2c1[nH]c1nc(Oc3cnc(C)nc3)nc(N3CC(=C(C)[C@@H](C)N)C3)c12
3.1

---

Assay: Volume of distribution at the steady state in Sprague-Dawley rat at 20 mg/kg, iv measured upto 24 hrs by LC-MS/MS analysis
Type: ADME, organism-based
Settings: in vivo, read-out: Vdss
VALUE_KIND: Vd

Form field: reported Vd of CNc1cc(F)cc2c1[nH]c1nc(Oc3cnc(C)nc3)nc(N3CC(=C(C)[C@@H](C)N)C3)c12
10.8 L/kg

---

Assay: Clearance in Sprague-Dawley rat at 4 mg/kg, iv measured upto 24 hrs by LC-MS/MS analysis
Format: ADME, organism-based
Details: in vivo
VALUE_KIND: clearance (mL/min/kg)
The response must be a number in mL/min/kg with no trailing unit.

Form field: reported clearance of CCC(CN)=C1CN(c2nc(Oc3cnc(C)nc3)nc3[nH]c4c(NC)cc(F)cc4c23)C1
86.7

Form field: reported clearance of CCCC(CN)=C1CN(c2nc(Oc3cnc(C)nc3)nc3[nH]c4c(NC)cc(F)cc4c23)C1
86.8

Form field: reported clearance of CNc1cc(F)cc2c1[nH]c1nc(Oc3cnc(C)nc3)nc(N3CC(=CC(C)N)C3)c12 (stereo unspecified)
81.5

Form field: reported clearance of CNc1cc(F)cc2c1[nH]c1nc(Oc3cnc(C)nc3)nc(N3CC(=C(C)C(C)N)C3)c12 (racemic)
44.1

Form field: reported clearance of CCC(CO)=C1CN(c2nc(Oc3cnc(C)nc3)nc3[nH]c4c(NC)cc(F)c(F)c4c23)C1
141

Form field: reported clearance of CCC(CN)=C1CN(c2nc(Oc3cnc(C(C)O)nc3)nc3[nH]c4c(NC)cc(F)cc4c23)C1 (stereo unspecified)
71.5

---

Please provide measured AUC(0-inf) for the entries that follow.
Assay: AUC (0 to infinity) in Sprague-Dawley rat at 5 mg/kg, iv measured upto 24 hrs by LC-MS/MS analysis
Format: ADME, organism-based
Design: time < 24 hrs, dose 5 mg/kg, route iv
Settings: in vivo
The response must be a number in ng·h/mL with no trailing unit.

Form field: reported AUC(0-inf) of [2H]C([2H])([2H])Nc1cc(F)cc2c1[nH]c1nc(Oc3cnc(C)nc3)nc(N3CC(=C(C)C(C)N)C3)c12 (centres undefined)
696

Form field: reported AUC(0-inf) of CCNc1cc(F)cc2c1[nH]c1nc(Oc3cnc(C)nc3)nc(N3CC(=C(C)[C@@H](C)N)C3)c12
1290

Form field: reported AUC(0-inf) of CNc1cc(F)cc2c1[nH]c1nc(Oc3cnc(C)nc3)nc(N3CC(=C(C)[C@@H](C)N)C3)c12
1100

Form field: reported AUC(0-inf) of [2H]C([2H])([2H])Nc1cc(F)cc2c1[nH]c1nc(Oc3cnc(C)nc3)nc(N3CC(=C(C)[C@@H](C)N)C3)c12
634

---

Please provide measured CC50 at 48 h for the entries that follow.
Assay: Cytotoxicity against human HEK293 cells assessed as cell viability measured for 48 hrs by CCK-8 assay
Format: toxicity, cell-based
The response must be a number in µM with no trailing unit.

Form field: reported CC50 at 48 h of CNc1cc(F)cc2c1[nH]c1nc(Oc3cnc(C)nc3)nc(N3CC(=C(C)[C@@H](C)N)C3)c12
19

Form field: reported CC50 at 48 h of CNc1cc(F)cc2c1[nH]c1nc(Oc3cnc(C)nc3)nc(N3CC4CCNC4C3)c12 (racemic)
21.8

Form field: reported CC50 at 48 h of C=CCC(CN)=C1CN(c2nc(Oc3cnc(C)nc3)nc3[nH]c4c(NC)cc(F)cc4c23)C1
29

Form field: reported CC50 at 48 h of CCC(CN)=C1CN(c2nc(Oc3cnc(C)nc3)nc3[nH]c4c(NC)cc(F)cc4c23)C1
17
